Source listed as patent US11458138B2.

- tested-on: LATS1 (Homo sapiens (Human))
- Sequence (O95835 whole entry, looked up): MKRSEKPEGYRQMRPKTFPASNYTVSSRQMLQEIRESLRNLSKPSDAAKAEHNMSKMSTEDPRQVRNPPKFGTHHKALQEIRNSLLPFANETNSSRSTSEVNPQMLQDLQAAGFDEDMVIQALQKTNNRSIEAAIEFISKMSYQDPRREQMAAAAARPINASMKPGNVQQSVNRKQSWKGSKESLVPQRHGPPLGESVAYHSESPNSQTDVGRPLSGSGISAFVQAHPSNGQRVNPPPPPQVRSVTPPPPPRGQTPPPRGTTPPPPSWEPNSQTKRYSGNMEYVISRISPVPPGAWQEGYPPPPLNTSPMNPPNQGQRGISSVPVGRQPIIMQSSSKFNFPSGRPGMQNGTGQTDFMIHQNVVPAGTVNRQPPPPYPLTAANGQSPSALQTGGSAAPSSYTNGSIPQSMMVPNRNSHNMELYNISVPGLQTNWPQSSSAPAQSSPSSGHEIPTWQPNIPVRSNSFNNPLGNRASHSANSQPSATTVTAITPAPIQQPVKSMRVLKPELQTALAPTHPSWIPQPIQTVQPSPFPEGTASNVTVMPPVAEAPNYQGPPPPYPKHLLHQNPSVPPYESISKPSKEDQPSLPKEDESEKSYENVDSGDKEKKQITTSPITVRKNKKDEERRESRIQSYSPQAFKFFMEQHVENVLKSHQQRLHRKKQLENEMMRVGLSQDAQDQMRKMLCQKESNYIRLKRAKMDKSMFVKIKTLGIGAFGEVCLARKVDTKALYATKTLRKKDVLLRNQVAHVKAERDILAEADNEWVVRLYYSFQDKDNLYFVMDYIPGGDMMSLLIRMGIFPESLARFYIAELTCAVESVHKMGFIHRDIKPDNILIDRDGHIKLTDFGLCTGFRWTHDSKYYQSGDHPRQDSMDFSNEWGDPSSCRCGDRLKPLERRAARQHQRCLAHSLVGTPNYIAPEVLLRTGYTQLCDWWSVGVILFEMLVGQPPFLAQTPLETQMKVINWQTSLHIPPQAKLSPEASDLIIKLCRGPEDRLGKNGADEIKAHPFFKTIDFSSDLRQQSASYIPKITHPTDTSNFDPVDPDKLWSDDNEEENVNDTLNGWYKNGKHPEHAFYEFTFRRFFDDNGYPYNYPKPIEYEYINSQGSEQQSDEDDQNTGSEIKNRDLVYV
- Sequence (Q7L9L4 whole entry partner, looked up): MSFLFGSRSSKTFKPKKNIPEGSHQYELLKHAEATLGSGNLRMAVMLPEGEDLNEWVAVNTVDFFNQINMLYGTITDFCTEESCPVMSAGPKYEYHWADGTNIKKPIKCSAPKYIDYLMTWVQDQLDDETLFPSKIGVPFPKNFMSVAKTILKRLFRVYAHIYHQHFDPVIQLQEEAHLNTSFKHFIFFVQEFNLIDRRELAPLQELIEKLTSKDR
- assay-method-text: LATS1 biochemical assay (Table 1A, Compound Examples 1-290; method in the earlier part)
pIC50 listing for selected compounds.
In plain terms, pIC50 is the concentration in mol/L turned into minus its base-10 logarithm.

Examples from the recorded data:
INSERT INTO measurements (compound, assay_result) VALUES
  ('FC(F)(F)C1(Nc2nc(-c3cn[nH]c3)nc3cnccc23)CC1', 7.77),
  ('c1cc(-c2nc(NC3CC3)c3ccncc3n2)ccn1', 8.15),
  ('CC(C)(Cc1c[nH]c2ccccc12)Nc1nc(-c2ccncc2)nc2cnccc12', 7.96),
  ('CCC(C)(C)Nc1cc(-c2ccncc2F)nc2cnccc12', 8.40),
  ('CC(Nc1nc(-c2cn[nH]c2)nc2cnccc12)c1ccncc1 (stereo not drawn)', 6.10);

Look up pIC50: `CC(C)(C)Nc1cc(-c2ccncc2)nc2cnccc12`
9.00

Field request: pIC50 | item: `CCN(c1nc(-c2ccncc2F)nc2cnccc12)C(C)C`
8.00

# query: pIC50 of entry `CC(C)(Nc1nc(-c2ccncc2)nc2cnccc12)c1ccc(F)cc1`
7.77

* * *

- tested-on: LATS1 (Homo sapiens (Human))
- assay-method-text: LATS1 biochemical assay (Table 1A, Compound Examples 1-290; method in the earlier part)
property-measured: IC50 (nM)
Only the number, expressed in nM, is required.

Completed entries (count: 4):
INSERT INTO results (compound, scale_unit, assay_result) VALUES
  ('OCC(CO)(CO)Nc1nc(-c2ccncc2)nc2cnccc12', 'nM', 199),
  ('CC(C)(C)Nc1cc(-c2ccncn2)nc2cnccc12', 'nM', 2),
  ('CCCNc1nc(-c2c[nH]nc2C2CC2)nc2cnccc12', 'nM', 51),
  ('CC1(Nc2nc(-c3ccc4[nH]ncc4c3)nc3cnccc23)CC1', 'nM', 7);

Please report the recorded IC50 for CCC(C)Nc1nc(-c2ccncc2)nc2cnccc12 (stereo not drawn) .
2

I would be grateful if you could share the reported IC50 for CC(O)C(C)Nc1nc(-c2ccncc2)nc2cnccc12 (stereo not drawn) .
17

Request the reported IC50 associated with `CCCCNc1nc(-c2ccncc2)nc2cnccc12`
6

Returns the measured IC50 for the input compound. Input: `CC1(Nc2nc(-c3ccncc3)nc3cnccc23)CC1`
1

Param item = `NCCCCCCNc1nc(-c2ccncc2)nc2cnccc12` ; retrieve measured IC50.
1

Fill in the blank: the reported IC50 of `CC(C)N(C)c1cc(-c2ccncc2)nc2cnccc12` is ____.
61

Fill blank: measured IC50 of the compound `CC(C)(C)Nc1nc(-c2ccncc2C(F)(F)F)nc2cnccc12` is ____.
1150

Could you share which IC50 value was measured for `CC1(Nc2nc(-c3ccncc3)nc3cnccc23)COC1` ?
5

Entry under review: `CC(C)(Cc1ccc(F)cc1)Nc1nc(-c2ccncc2)nc2cnccc12` . Reported IC50?
11

Give its IC50 value. Item: `CC(C)(O)CC(C)(C)Nc1cc(-c2ccncc2)nc2cnccc12`
7

* * *

- tested-on: Human LATS2 kinase domain protein (Homo sapiens (Human))
- Sequence (Q9NRM7 553-1088, one chain of several): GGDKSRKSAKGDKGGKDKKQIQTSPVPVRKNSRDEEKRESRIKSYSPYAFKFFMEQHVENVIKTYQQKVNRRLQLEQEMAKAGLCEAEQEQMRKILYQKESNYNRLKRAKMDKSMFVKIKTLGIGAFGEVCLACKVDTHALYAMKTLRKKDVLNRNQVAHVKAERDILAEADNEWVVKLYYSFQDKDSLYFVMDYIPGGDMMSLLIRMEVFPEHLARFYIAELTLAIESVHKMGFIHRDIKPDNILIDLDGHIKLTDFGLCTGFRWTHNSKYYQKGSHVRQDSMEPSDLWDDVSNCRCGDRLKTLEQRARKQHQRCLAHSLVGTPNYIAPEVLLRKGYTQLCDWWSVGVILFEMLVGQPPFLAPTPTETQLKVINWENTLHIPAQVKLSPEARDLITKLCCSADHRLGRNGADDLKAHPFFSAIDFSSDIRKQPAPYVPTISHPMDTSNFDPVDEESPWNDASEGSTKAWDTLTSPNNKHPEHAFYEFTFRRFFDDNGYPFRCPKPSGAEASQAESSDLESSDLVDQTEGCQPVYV
- assay-method-text: LATS2 Biochemical Caliper Assay (Compound Examples 1-290)
- particulars: 400 micromolar ATP
Listed molecules paired with reported pIC50
Entry type: numeric. Quantity: pIC50, the -log10 of concentration in molar units.

INSERT INTO assay_data (molecule, tested_on, assay_result) VALUES
  ('FC(F)(F)C1(Nc2nc(-c3ccncc3)cc3cnccc23)CC1 [Example 288]', 'Human LATS2 kinase domain protein (Homo sapiens (Human))', 7.47),
  ('CCCNc1nc(-c2c[nH]nc2C(F)(F)F)nc2cnccc12 [Example 287]', 'Human LATS2 kinase domain protein (Homo sapiens (Human))', 7.82),
  ('FC(F)(F)C1CN(c2nc(-c3ccncc3)nc3cnccc23)CCN1 (centres unmarked) [Example 290]', 'Human LATS2 kinase domain protein (Homo sapiens (Human))', 8.10),
  ('CC(C)(O)CC(C)(C)Nc1nc(-c2ccncc2)nc2cnccc12 [Example 49]', 'Human LATS2 kinase domain protein (Homo sapiens (Human))', 7.68);

Next up:
Would you kindly share the measured pIC50 for FC(F)(F)C1(Nc2nc(-c3ccncc3)nc3cnccc23)CCC1 [Example 62] ?
8.70
